Item-by-item account of folding stability dG
B1: HEEH_KT_rd6_3632 (parent)
chain: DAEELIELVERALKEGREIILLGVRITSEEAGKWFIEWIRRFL

- Variants of: B1
- ASSAY SUMMARY: folding stability dG (cDNA display proteolysis); higher = more stable
- MEASUREMENT PARAMETERS: PBS, room temperature
# value in kcal/mol; strip the unit string

Worked examples follow.
biosequence="DAEELIELVERALTEGREIILLGVRITSEEAGKWFIEWIRRFL [K14T]" unit_abbreviation=kcal/mol numeric_readout=3.42
biosequence="DAEELIELVERALKEGREIILLGVRITSEEAGKWFIEWIRDFL [R41D]" unit_abbreviation=kcal/mol numeric_readout=3.05
biosequence="DAEEMIELVERALKEGREIILLGVRITSEEAGKWFIEWIRRFL [L5M]" unit_abbreviation=kcal/mol numeric_readout=3.56
biosequence="DAEELIEQVERALKEGREIILLGVRITSEEAGKWFIEWIRRFL [L8Q]" unit_abbreviation=kcal/mol numeric_readout=3.49
biosequence="DAEELIELVERALKEGREIILLGVRITREEAGKWFIEWIRRFL [S28R]" unit_abbreviation=kcal/mol numeric_readout=3.43
biosequence="DAEELIEIVERALKEGREIILLGVRITSEEAGKWFIEWIRRFL [L8I]" unit_abbreviation=kcal/mol numeric_readout=3.61

Kindly review the next variant as well.
Input: For the variant shown here, DAEELIELVERALKEGREIILLGLRITSEEAGKWFIEWIRRFL [V24L] , give the reported folding stability dG.
Output: 3.43
